biological target: RIPK2 enzyme (Homo sapiens); construct: purchased Carna 09-128; assay: RIPK2 inhibition (ADP-Glo Kinase Assay); type: biochemical; details: RIPK2 5 nM, ATP 150 μM, MBP substrate, read-out: RIPK2 IC50
Sequence (O43353 1-299 limits assumed): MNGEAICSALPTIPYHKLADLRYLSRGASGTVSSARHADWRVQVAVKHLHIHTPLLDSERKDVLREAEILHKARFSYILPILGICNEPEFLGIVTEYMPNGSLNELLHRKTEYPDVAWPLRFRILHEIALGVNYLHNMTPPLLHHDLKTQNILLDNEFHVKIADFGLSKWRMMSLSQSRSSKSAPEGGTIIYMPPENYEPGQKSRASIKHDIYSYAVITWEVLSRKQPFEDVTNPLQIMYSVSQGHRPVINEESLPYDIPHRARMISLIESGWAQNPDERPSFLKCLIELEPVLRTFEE

{"columns": ["compound", "IC50"],
 "data": [
  ["[2H]C([2H])([2H])NC(=O)c1ccc2nccc(Oc3cc(F)c(CC(=O)Nc4cnn(C56CC(C5)C6)c4)cc3C([2H])([2H])[2H])c2c1 (single isomer, unassigned)", "< 2.5 nM"],
  ["Cc1cc(CC(=O)Nc2cnn(C(C)(C)C)c2)ccc1Oc1ccnc2ccc(P(C)(C)=O)cc12", "< 2.5 nM"],
  ["Cc1c(Oc2ccnc3ccc(C(N)=O)cc23)cc(F)c(CC(=O)Nc2cnn(C34CC(C3)C4)c2)c1F", "< 2.5 nM"],
  ["CCc1nc(-c2ccc3nccc(Oc4cc(F)c(CC(=O)Nc5cnn(C(C)(C)C)c5)cc4C)c3c2)n[nH]1", "< 2.5 nM"],
  ["CN(C)C(=O)c1ccc2ncnc(Oc3ccc(CC(=O)Nc4cnn(C(C)(C)C)c4)c(F)c3)c2c1", "21 nM"],
  ["Cc1c(Oc2ccnc3ccc(S(=O)(=O)C4CCOC4)cc23)ccc(CC(=O)Nc2cnn(C(C)(C)C)c2)c1F (single isomer, unassigned) [Compound 250]", "< 2.5 nM"],
  ["[2H]C([2H])([2H])C(n1cc(NC(=O)Cc2cc(C)c(Oc3ccnc4ccc(C(=O)NC)cc34)cc2F)cn1)(C([2H])([2H])[2H])C([2H])([2H])[2H]", "< 2.5 nM"],
  ["[2H]C([2H])([2H])NC(=O)c1cc2c(Oc3ccc(CC(=O)Nc4cnn(C(C)(C)C)c4)nc3C)ccnc2cc1F", "< 2.5 nM"],
  ["Cc1c(Oc2ccnc3ccc(C(=O)N4CCNCC4)cc23)ccc(CC(=O)Nc2cnn(C(C)(C)C)c2)c1F", "< 2.5 nM"],
  ["CN1CCC(S(=O)(=O)c2ccc3nccc(Oc4ccc(CC(=O)Nc5cnn(C(C)(C)C)c5)c(F)c4)c3c2)CC1", "< 2.5 nM"],
  ["[2H]C([2H])([2H])NC(=O)c1ccc2nccc(Oc3c(C)cc(CC(=O)Nc4cnn(C56CC(C5)C6)c4)cc3Cl)c2c1", "2.8 nM"],
  ["COc1ccc2nccc(Oc3ccc(CC(=O)Nc4cnn(C(C)(C)C)c4)c(F)c3)c2c1", "5.6 nM"],
  ["Cc1cc(CC(=O)Nc2cnn(C(C)(C)C)c2)c(F)cc1Oc1ccnc2ccc(-c3ncn(C)n3)cc12", "< 2.5 nM"]
]}
